- Test name: yeast display, Sf9 membrane polyspecificity reagent, FACS + sequencing; frameworks hold sequencing errors
Measurement type: polyreactivity (PSR sort gate)

>>> experimental_value("QVQLVESGGGLVQAGGSLRLSCAASGYTFGTYDKGWYRQAPGKERELVAAISIGGSTNYADSVKGRFTISRDNAKNTVYLQMNSLKPEDTAVYYCAAEVNVGTLLLSVIVEDGDYWGQGTQVTVSS")
"low polyreactivity"
>>> experimental_value("QVQLVESGGGLVQAGGSLRLSCAASGIIFVRYAMGWYRQAPGKERELVAAITWRGSTYYADSVKGRFTISRDNAKNTVYLQMNSLKPEDTAVYYCAAVKPHYTSFRDYYCGQGTQVTVSS")
"high polyreactivity"
>>> experimental_value("QVQLVDSGGGLVQAGGSLRLSCAASGLSFLVNAMGWYRQAPGKERELVAAIDRDGGITYADSVKGRFTISRDNAKNTVYLQMNSLKPDDTAVSYCAADPSSYGRFTYDYWGQGTQVNVSS")
"low polyreactivity"
>>> experimental_value("QVQLVESGRGLVQAGGSLRLSCAACGRIFYRYTMGSYRQAPGKERELVAAITRGGNTYYADSVKGRFTISRDNANYTVYLQMNSLKPEDTAVYYCAKKAPSDRNNYWGQGTQVTVSS")
"high polyreactivity"
>>> experimental_value("QDQLVESGGGLVQAGGSLRLSCAASGFTFVINDMGWYRQAPGKERELVADITSGGDTYYADSVKGRFTISRDNAKNTDYLQMNSLKPEDTAVYYCAADIYPDWIYLLYGYWGQGTQVTVSS")
"low polyreactivity"

====

- Test name: yeast display, Sf9 membrane polyspecificity reagent, FACS + sequencing; frameworks hold sequencing errors
Measurement type: polyreactivity (PSR sort gate)

>>> experimental_value("QDQLVESGGGLDQEGGSLRLSCAASGIFSYEAMGWNRQAPGKERELVATISRRGSSTYYADSVKGRFTISRDNAKNTVYLQMNSLKPEDSAVYYCAAVRYISPAFLPASSYELGYWGQGSQVTVSS")
"low polyreactivity"
>>> experimental_value("QVQLVESGGGLVQAGGSLRLSCAASGRTFWSNAMGWYRQAPGKERELVADITFSGGRTYYADSVKGRFTISRDNAKNTVYLQMNSLKPEDTAVYYCAASATPSGVGMDYWGQGTQVTVSS")
"low polyreactivity"
>>> experimental_value("QVQLVESGGGLDQAGGSLRLSCAASGFTFVDYDIGWYRQATGKERELVAAITYSGGSTSYADSVKGRFTISRDNSKTTFYLQMNSLKPEDTAVYYCAGEPVGEIMDYWGQGTQVTVSS")
"low polyreactivity"
>>> experimental_value("QVQLVESAGGLVQAGGSLRLSCDASGLTYSYYAMGWYIQAPGKERELVAAISWSGGSTYYADSVNGRFTISRDNAKNTVYLQMNSLKPEDTAVYYCAKYPNRHYWYDYWGQGTQVTVSS")
"low polyreactivity"
>>> experimental_value("QDQLGESGGGVVQAGGSLRLSCAAYGRTLHYYAMGWYRQAPGKERELVAGIRDSGGSTYYADSVKGRFTISRDNEMNTVYFLMNSLKPEDTAVYYCAARSHRRLMYYWGQGTQVNVSS")
"high polyreactivity"
>>> experimental_value("QVQLQESGGGLVQAGGSLRLSCAASGNIYDADIMGWYRQAPGKERELVTSITDGGSTNYADSVKGRFTISRDNAKNTVYLQMNSLKPEDTAVYYSAAIAYPDIPTSFDYNSDYSYWGQGTQVTVSS")
"low polyreactivity"
>>> experimental_value("QVQLVESGGGLVQAGGSLRLSCAASGLTFWSYAMGWYRQAPGKERELVAAISSGGRTYYADSVKGRFTISRDNAKNTVYLQMNSLKPEDTAVYYCNARSRRGPTKDDYWGQGTQVTVSS")
"high polyreactivity"
>>> experimental_value("QVQLVDSGGGLVQAGGSLRLSCPASGSTFSRYAMGWYRQAPGKERELVAAISRSGGTTYYADSVKGRFTISRDNAKNTVYLQMNSLKPEDTAVYYCNDRGRYEYGYWGQGTQVTVSS")
"high polyreactivity"
>>> experimental_value("QVQLVESGGGLVQAGGSLRLSCAASGITFVKNAMGWYRQAPGKERELVARIRIGGSTSYADSVKGRFTISRDNAKNTVYLQMNSLKPEDPAVYYCARYAGRLSYRYEFWGQGTQVTLSS")
"high polyreactivity"
>>> experimental_value("QVQLVESGGGLVQAGGSLRLSCAASGGIFEAYVMGWYRQAPGKERELVAAISFRGGSTYYADSVKGRFTISRDNAKNTVYLQMNSLKPEDTAVYYCAADYRHQGYDYWGLGTQVTVSS")
"low polyreactivity"
>>> experimental_value("QVQLVESGGGLVQAGGSLRLSCAASGSTFRWNAMGWYRQAPGKERELVAAITWSGGSTYYADSVKGRFTISRDNAKNTVYLQMNSLKPEDTAVYYCNAGGLFQYDSWGQGTQVTVSS")
"low polyreactivity"
